Source listed as the Kinase Knowledgebase extract (Sharma et al. 2016).

Biological target: PIK3CD (Human)
pIC50: −log10 of the molar value.
// reported pIC50 for each item listed

The value of pIC50 measured for the molecule C[C@H](Nc1nc(N)nc(N)c1C#N)c1nc2cccc(F)c2c(=O)n1-c1cc(F)cc(Cl)c1 turned out to be 7.30 to 8.00

The value of pIC50 measured for the molecule C[C@H](Nc1nc(N)nc(N)c1C#N)c1nc2cccc(C#N)c2c(=O)n1-c1ccccc1 turned out to be 8.00 to 9.00

The value of pIC50 measured for the molecule CC(C)[C@H](Nc1nc(N)nc(N)c1C#N)c1nc2cccc(Cl)c2c(=O)n1-c1cc(F)cc(F)c1 turned out to be 8.00 to 9.00

The value of pIC50 measured for the molecule C[C@H](Nc1nc(N)nc(N)c1C#N)c1nc2ccc(F)cc2c(=O)n1-c1cc(F)cc(F)c1 turned out to be 8.00 to 9.00

The value of pIC50 measured for the molecule C[C@H](Nc1nc(N)nc(N)c1C#N)c1nc2c(Cl)cccc2c(=O)n1-c1cc(F)cc(F)c1 turned out to be 8.00 to 9.00

The value of pIC50 measured for the molecule CC[C@H](Nc1nc(N)nc(N)c1C#N)c1nc2cccc(C)c2c(=O)n1-c1cc(F)cc(F)c1 turned out to be ≥ 9.00

The value of pIC50 measured for the molecule CC[C@H](Nc1nc(N)nc(N)c1C#N)c1nc2cccc(F)c2c(=O)n1-c1cccc(F)c1 turned out to be 8.00 to 9.00

The value of pIC50 measured for the molecule CC[C@H](Nc1nc(N)nc(N)c1C#N)c1nc2c(C)ccc(F)c2c(=O)n1-c1cc(F)cc(F)c1 turned out to be 7.30 to 8.00

The value of pIC50 measured for the molecule C[C@H](Nc1nc(N)nc(N)c1C#N)c1nc2c(Cl)cc(F)cc2c(=O)n1-c1cc(F)cc(F)c1 turned out to be 8.00 to 9.00

The value of pIC50 measured for the molecule CC[C@H](Nc1nc(N)nc(N)c1C#N)c1nc2c(F)ccc(F)c2c(=O)n1-c1cccc(C#N)c1 turned out to be 7.30 to 8.00

The value of pIC50 measured for the molecule Cc1ccc(Cl)c2c(=O)n(-c3ccccc3)c([C@H](C)Nc3nc(N)nc(N)c3C#N)nc12 turned out to be ≥ 9.00

The value of pIC50 measured for the molecule C[C@H](Nc1nc(N)nc(N)c1C#N)c1nc2cccc(F)c2c(=O)n1-c1cccc(C(F)F)c1 turned out to be 8.00 to 9.00

The value of pIC50 measured for the molecule C[C@H](Nc1nc(N)nc(N)c1C#N)c1nc2cccc(O)c2c(=O)n1-c1ccccc1 turned out to be ≥ 9.00

The value of pIC50 measured for the molecule CC(C)C[C@H](Nc1nc(N)nc(N)c1C#N)c1nc2cccc(Cl)c2c(=O)n1-c1cccc(C#N)c1 turned out to be 7.30 to 8.00

The value of pIC50 measured for the molecule Cc1ccc(F)c2c(=O)n(-c3cc(F)cc(C#N)c3)c([C@H](C)Nc3nc(N)nc(N)c3C#N)nc12 turned out to be 7.30 to 8.00

The value of pIC50 measured for the molecule CC(C)C[C@H](Nc1nc(N)nc(N)c1C#N)c1nc2cccc(Cl)c2c(=O)n1-c1cccc(F)c1 turned out to be 8.00 to 9.00

The value of pIC50 measured for the molecule CC[C@H](Nc1nc(N)nc(N)c1C#N)c1nc2ccc(F)cc2c(=O)n1-c1cc(F)cc(F)c1 turned out to be 7.30 to 8.00
